target: SARS-CoV-2 full length Spike protein, wild type (SARS-CoV-2, UniProt P0DTC2 14-1208)
Measured median fluorescence intensity, fold over isotype control of individual entries
Parameter measured: median fluorescence intensity, fold over isotype control (fold over isotype)

Binder	Unit abbrev	Assay value
antibody 564 (antibody, V domains shown) VH: QVHLVESGGGVVQPGKSLRLSCAASGFIFSSFGMHWVRQPPGKGLEWLAVVSYDGSVTKYSDSFEGRFTISRDNSKNTLYLQMDSLRPEDTAVYYCAKGQGTNLLHYWGQGILVTVSS VL: DVVLSQSPLSLPVTLGQPASISCRSSESLVYTDGDTYLHWFHQRPGQSPRRLIFKVSHRESGVPDRISGSGSGTDFTLKISRVEAEDVGVYYCMQGTHWPFTFGPGTKVDIK	fold over isotype	523
antibody 576 (antibody, V domains shown) VH: QVQLVESGGGVVQPGRSLRLSCAASGFTFSSYAMHWVRQAPGKGLEWVAVISYDGSNKYYADSVKGRFTISRDNSKNTLYLQMNSLRAEDTAVYYCAKAGGGSYYRGFDYWGQGTLVTVSS VL: DIQLTQSPSFLSASVGDRVTITCRASQGISSYLAWYQQKPGKAPKLLIYAASTLQSGVPSRFSGSGSGTEFTLTISSLQPEDFATYYCQQLNSYPTFGPGTKVDIK	fold over isotype	566
antibody 571 (antibody, V domains shown) VH: EVQLVESGGGLVQPGGSLRLSCAASGFTFSTYWMTWVRQAPGKGLEWVANIKHDGSGKYHVDSVKGRFTISRDNAKNSLYLQMNSLRAEDTAVYYCTRDEGGWYDYWGQGTLVTVSS VL: QSALTQPASVSGSPGQSITISCTGTSSDVGSYNPVSWYQQHPGKAPKVMIYEGSKRPSGVSNRFSGSKSGNTASLTISGLQAEDEADYYCCSYARSSTFVVFGGGTKLTVL	fold over isotype	338
antibody 566 (antibody, V domains shown) VH: QVQLVQSGAEVKKPGASVKVSCKASGYTFTSYAMHWVRQAPGQRLEWMGWINAGNGNTKYSQKFQGRVTITRDTSASTAYMELSSLRSEDTAVYYCARDLGVAVTLHPADFDYWGQGTLVTVSS VL: QSVLTQPPSVSGAPGQRVTISCTGSSSNIGAGYDVHWYQQLPGTAPKLLIYDNSNRPSGVPDRFSGSKSGTSASLAITGLQAEDEADYYCQSYDSSLSAVVFGGGTKLTVL	fold over isotype	613
antibody 556 (antibody, V domains shown) VH: QVQLVESGGGVVQPGRSLRLSCAASGFTFSSYAMHWVRQAPGKGLEWVAVISYDGSDKYYADSVKGRVTISRDNSKNTLYLQMNSLRVEDTAVFYCAKDDCSGGVCFPDYWGQGTLVTVSS VL: QSALTQPASVSGSPGQSITISCTGTSSDVGGYNYVSWYQQHPGKAPKLMIYEVSIRPSGVSNRFSGSKSGNTASLTISGLQAEDEAAYYCSSYTSSSTLVFGGGTKLTVL	fold over isotype	625
antibody 569 (antibody, V domains shown) VH: QVQLVESGGGVVQPGRSLRLSCAASGFTFSSYAMHWVRQAPGKGLEWVAVISYDGSNKYYADSVKGRFTISRDNSKNTLYLQMNSLRAEDTAVYYCARASSGGYQGPFDPWGQGTLVTVSS VL: EIVLTQSPATLSLSPGERATLSCRASQSVSSYLAWYQQKPGQAPRLLIYDASNRATGIPARFSGSGSGTDFTLTISSLEPEDFAVYYCQQRSSPFGPGTKVDIK	fold over isotype	478
